biological target: recombinant full-length human GSK3β (Homo sapiens, UniProt P49841); construct: recombinant full-length human GSK3β (Upstate); purchased Upstate; test: Luciferase-coupled cell-free GSK3β kinase assay; type: biochemical; settings: Table 1
Sequence (P49841 whole entry): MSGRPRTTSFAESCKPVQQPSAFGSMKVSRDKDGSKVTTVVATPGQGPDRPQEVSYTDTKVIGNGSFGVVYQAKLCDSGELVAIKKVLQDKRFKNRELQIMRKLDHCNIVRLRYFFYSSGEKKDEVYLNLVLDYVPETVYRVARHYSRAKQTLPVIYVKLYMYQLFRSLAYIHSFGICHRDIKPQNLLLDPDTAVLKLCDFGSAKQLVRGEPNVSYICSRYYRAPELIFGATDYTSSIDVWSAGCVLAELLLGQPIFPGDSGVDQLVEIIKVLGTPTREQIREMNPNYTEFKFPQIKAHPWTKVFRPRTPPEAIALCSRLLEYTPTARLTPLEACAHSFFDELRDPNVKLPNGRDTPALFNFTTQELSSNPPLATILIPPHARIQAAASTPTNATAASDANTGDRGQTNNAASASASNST
pIC50: −log10 of the molar value.
Below, each of the molecules is paired with its reported pIC50 value.

// known answers, use as guide
{"MOLECULE": "Nc1c(F)c(NCCCCc2ccccc2)c(F)c2c1c(=O)ccn2C1CC1 [compound 57]", "RESULT": "6.00 to 6.30"}
{"MOLECULE": "Nc1c(F)c(NCCCn2ccnc2)c(F)c2c1c(=O)ccn2C1CC1 [compound 26]", "RESULT": "6.30 to 7.00"}

Okay, next one:
Qu. Find pIC50 (recombinant full-length human GSK3β (Homo sapiens, UniProt P49841)) for the entry COc1c(NCCCOc2ccccc2)c(F)c(N)c2c(=O)c(C(=O)O)cn(C3CC3)c12 [compound 82]
Ans. < 6.00

###

Target: recombinant full-length human GSK3β (Homo sapiens, UniProt P49841)
Construct: recombinant full-length human GSK3β (Upstate); purchased Upstate
Assay: Luciferase-coupled cell-free GSK3β kinase assay
Format: biochemical
Details: Table 2
Procedure: For compounds in Tables 1 and 2, IC50 (μM) for GSK3β enzyme in cell free assay is provided as follows: Luciferase-Coupled Protein Kinase Assays All coupled-luciferase assays are performed by using a brief incubation with firefly luciferase (Promega) after completion of the kinase assay. KinaseGlo Plus is used for reading kinase reactions with ATP>10 μM, KinaseGlo for ATP <10 μM. The assay volume in a 384-well plate for the kinase reaction is 30 microliters. […]
pIC50: −log10 of the molar value.
VALUE_TYPE: pIC50

// known answers, use as guide
{"COMPOUND": "C[C@H]1COc2c(NCCC(c3ccccc3)c3ccc4c(c3)OCO4)c(F)c(N)c3c(=O)c(C(=O)O)cn1c23 (stereo partly shown)", "VALUE_TYPE": "pIC50", "RESULT": "6.30 to 7.00"}
{"COMPOUND": "C[C@H]1COc2c(NCCN3CCc4ccccc43)c(F)c(N)c3c(=O)c(C(=O)O)cn1c23", "VALUE_TYPE": "pIC50", "RESULT": "> 7.00"}
{"COMPOUND": "Nc1c(F)c(NCCCc2ccccc2)c2c3c1c(=O)c(C(=O)O)cn3CCCO2", "VALUE_TYPE": "pIC50", "RESULT": "6.30 to 7.00"}

Okay, next one:
Qu. Which pIC50 is listed for Nc1c(F)c(NCCCn2cnc3ccccc32)c2c3c1c(=O)c(C(=O)O)cn3CCCO2 ?
Ans. 6.30 to 7.00

###

test system: S. aureus Smith; assay: Antibacterial activity (MIC), S. aureus; assay type: cell-based; conditions: Staphylococcus aureus, Table 2; S. aureus Smith; read-out: Antimicrobial MIC [μM] S. aureus
VALUE_TYPE: MIC

// known answers, use as guide
{"CPD_SMILES": "CCOC(=O)CCNc1c(F)c(N)c2c(=O)c(C(=O)O)cn(C3CC3)c2c1OC", "MIC": "0.5 to 10 µM"}
{"CPD_SMILES": "CC1(C)COc2c(NCCNc3ccccn3)c(F)c(N)c3c(=O)c(C(=O)O)cn1c23", "MIC": "> 50 µM"}
{"CPD_SMILES": "C[C@H]1COc2c(NCCCC3CCCCC3)c(F)c(N)c3c(=O)c(C(=O)O)cn1c23", "MIC": "10 to 50 µM"}

Okay, next one:
Qu. Which MIC is listed for CC(C)[C@@H]1COc2c(NCCCc3ccccc3)c(F)c(N)c3c(=O)c(C(=O)O)cn1c23 ?
Ans. 0.5 to 10 µM

###

Tested on: S. aureus Smith
Assay: Antibacterial activity (MIC), S. aureus
Type: cell-based
Settings: Staphylococcus aureus, Table 2; S. aureus Smith; read-out: Antimicrobial MIC [μM] S. aureus
Source text: As used herein, a minimum inhibitory concentration (MIC) for bacterial growth assay is the lowest level of a compound needed to cause an inhibition to bacterial growth in culture medium. In certain embodiments, the antibacterial activity of compounds herein, measured as MIC. […] Antibacterial activity for E. coli, ATCC8739 andS. aureus Smith expressed as MIC (μM) is provided as follows: […]
VALUE_TYPE: MIC

// known answers, use as guide
{"COMPOUND": "CC(C)[C@@H]1COc2c(NCCCn3cnc4ccccc43)c(F)c(N)c3c(=O)c(C(=O)O)cn1c23", "MIC": "0.5 to 10 µM"}
{"COMPOUND": "Nc1c(F)c(NCCNc2ccccn2)cc2c1c(=O)c(C(=O)O)cn2C1CCOCC1", "MIC": "10 to 50 µM"}
{"COMPOUND": "Nc1c(F)c(NCCNc2ccccn2)c2c3c1c(=O)c(C(=O)O)cn3[C@@H](c1ccccc1)CO2", "MIC": "10 to 50 µM"}
{"COMPOUND": "CC(C)[C@@H]1COc2c(NCCNc3ccccn3)c(F)c(N)c3c(=O)c(C(=O)O)cn1c23", "MIC": "0.5 to 10 µM"}
{"COMPOUND": "CC1(C)COc2c(NCCCn3ccnc3)c(F)c(N)c3c(=O)c(C(=O)O)cn(c23)C1", "MIC": "10 to 50 µM"}

Qu. Which MIC is listed for COc1c(NCCNc2ccccn2)c(F)c(NC(=O)C(F)(F)F)c2c(=O)c(C#N)cn(C3CC3)c12 ?
Ans. 0.5 to 10 µM

Qu. Same again, this time with CC1COc2c(NCCNc3cccc(F)n3)c(F)c(N)c3c(=O)c(C(=O)O)cn1c23 (centres unmarked)
Ans. 0.5 to 10 µM

Qu. Same again, this time with CC(C)C[C@H]1COc2c(NCCNc3ccccn3)c(F)c(N)c3c(=O)c(C(=O)O)cn1c23
Ans. 10 to 50 µM

###

Tested on: E. coli, ATCC8739
Assay: Antibacterial activity (MIC), E. coli
Type: cell-based
Settings: Escherichia coli, ATCC8739, Table 1; E. coli ATCC8739; read-out: Antibacterial MIC (μM) E.Coli
Text: As used herein, a minimum inhibitory concentration (MIC) for bacterial growth assay is the lowest level of a compound needed to cause an inhibition to bacterial growth in culture medium. In certain embodiments, the antibacterial activity of compounds herein, measured as MIC. […] Antibacterial activity for E. coli, ATCC8739 andS. aureus Smith expressed as MIC (μM) is provided as follows: […]
VALUE_TYPE: MIC

{"CPD_SMILES": "COc1c(NCCNc2ccccn2)c(F)c(N)c2c(=O)c(C(=O)O)cn(C3CCCC3)c12", "RESULT": "10 to 50 µM"}

Qu. Which MIC is listed for Nc1c(F)c(NCCc2ccccc2)c(F)c2c1c(=O)c(C(=O)O)cn2C1CC1 ?
Ans. 0.5 to 10 µM

Qu. Same again, this time with Nc1c(F)c(NCCCc2ccccc2)c(F)c2c1c(=O)ccn2CCc1ccccc1
Ans. 10 to 50 µM

###

target: recombinant full-length human GSK3β (Homo sapiens, UniProt P49841); construct: recombinant full-length human GSK3β (Upstate); purchased Upstate; experiment: Luciferase-coupled cell-free GSK3β kinase assay; type: biochemical; conditions: Table 1
VALUE_TYPE: IC50

// known answers, use as guide
{"MOLECULE": "Nc1cc(NCCCc2ccccc2)cc2c1c(=O)c(C(=O)O)cn2C1CC1", "IC50": "> 1 µM"}
{"MOLECULE": "Nc1c(F)c(NCCNc2ccccn2)c(F)c2c1c(=O)ccn2CCc1ccccc1", "IC50": "0.1 to 0.5 µM"}
{"MOLECULE": "Nc1c(F)c(NCCc2ccc(-c3ccccc3)cc2)c(F)c2c1c(=O)ccn2C1CC1", "IC50": "> 1 µM"}
{"MOLECULE": "CC(C)OCCCNc1c(F)c(N)c2c(=O)ccn(C3CC3)c2c1F", "IC50": "> 1 µM"}
{"MOLECULE": "CC1COc2c(NCCCOc3ccccc3)c(F)c(N)c3c(=O)c(C(=O)O)cn1c23 (stereo not drawn)", "IC50": "0.1 to 0.5 µM"}
{"MOLECULE": "Nc1c(F)c(NCCNc2ccccn2)c(F)c2c1c(=O)c(C(=O)O)cn2CCc1ccccc1", "IC50": "0.1 to 0.5 µM"}

Qu. Which IC50 is listed for Nc1c(F)c(NCCCn2ccnc2)c(F)c2c1c(=O)c(C(=O)O)cn2C1CCCC1 ?
Ans. < 0.1 µM

Qu. Same again, this time with Nc1c(F)c(NCCn2ccnc2)c(F)c2c1c(=O)c(C(=O)O)cn2C1CC1
Ans. > 1 µM

Qu. Same again, this time with Nc1c(F)c(NCCCc2ccccc2)c(F)c2c1c(=O)ccn2C1CC1
Ans. 0.1 to 0.5 µM

Qu. Same again, this time with Nc1c(F)c(NCCc2ccc(F)cc2F)c(F)c2c1c(=O)ccn2C1CC1
Ans. > 1 µM

Qu. Same again, this time with CC(C)(C)OC(=O)NCCNc1c(F)c(N)c2c(=O)ccn(C3CC3)c2c1F
Ans. 0.1 to 0.5 µM
